# System: FT3469 (normal neural stem cell line);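 note: cell Painting imaging in 384-well plates, CellProfiler features reduced to at least 20 principal components, Euclidean distance versus same-plate DMSO vehicle wells (0.1% v/v), median over six images per well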
# assay.method.text: phenotypic distance (Euclidean, principal components) from DMSO controls (arbitrary units); higher = stronger morphological change
# condition.parameters: 1000 nM; exposure time: 72 h
Where a name gives a salt, the structure may show the parent alone.
Categorize each record by its phenotypic distance using low bin = under 0.7, mid bin = from 0.7 up to 1, high bin = 1 and over

Request: Into which category would you place C[C@@H](O)[C@H]1C(=O)N2C(C(=O)O)=C(S[C@@H]3CN[C@H](C(=O)N(C)C)C3)[C@H](C)[C@H]12 ?
Result: mid bin

Request: Into which category would you place CN[C@@H](C)C(=O)N[C@H](C(=O)N1CCC[C@H]1C(=O)N[C@H]1c2ccccc2C[C@H]1OCC#CC#CCO[C@@H]1Cc2ccccc2[C@@H]1NC(=O)[C@@H]1CCCN1C(=O)[C@@H](NC(=O)[C@H](C)NC)C1CCCCC1)C1CCCCC1 ?
Result: high bin

Request: Into which category would you place Cc1cc(C(C)(C)CC(C)(C)C)ccc1OCCOCC[N+](C)(C)Cc1ccccc1 [Methyl benzethonium chloride] ?
Result: mid bin

Request: Into which category would you place CN1C(=O)OC(C)(C)C1=O ?
Result: low bin

Request: Into which category would you place COc1cc2ncnc(Nc3cccc(Br)c3)c2cc1OC ?
Result: mid bin

Request: Into which category would you place CC(C)NCC(O)c1ccc(O)c(O)c1 (stereo not given) [Isoproterenol hydrochloride] ?
Result: mid bin

Request: Into which category would you place COc1cc(/C=C/C(=O)N2CCC=CC2=O)cc(OC)c1OC ?
Result: high bin

Request: Into which category would you place COC(=O)[C@@H]1[C@H]2C[C@H]3c4[nH]c5ccccc5c4CCN3C[C@@H]2CC[C@@H]1O [Yohimbine hydrochloride] ?
Result: low bin

Request: Into which category would you place COc1cc2c(cc1O)CC[C@@H]1[C@@H]2CC[C@]2(C)[C@@H](O)CC[C@@H]12 ?
Result: mid bin

Request: Into which category would you place CCN(CC)Cc1ccc(C(=O)N(CCc2ccccc2OC)[C@@H]2CCNC2)cc1 ?
Result: high bin

Request: Into which category would you place O=C1c2c(O)ccc(O)c2C(=O)c2c(NCCNCCO)ccc(NCCNCCO)c21 ?
Result: high bin

Request: Into which category would you place Nc1ccn([C@H]2CC[C@@H](CO)O2)c(=O)n1 ?
Result: low bin

Request: Into which category would you place CC(C)C[C@H]1C(=O)N2CCC[C@H]2[C@]2(O)O[C@](NC(=O)[C@@H]3C=C4c5cccc6[nH]c(Br)c(c56)C[C@H]4N(C)C3)(C(C)C)C(=O)N12 [Bromocryptine mesylate] ?
Result: low bin

###

For each of the molecules below, state its surviving fraction.
# System: E13 (patient-derived glioblastoma stem cells of classical subtype);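 note: nuclei counted by high-content imaging of Hoechst-stained cells in laminin-coated 384-well plates, relative to 0.1% DMSO vehicle wells, with staurosporine as cell-death control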
# assay.method.text: surviving fraction (nuclei count normalised to DMSO); higher = more cells surviving (less toxic)
# condition.parameters: 111.1111111 nM; exposure time: 72 h
Structures can show the parent of a compound that is named as a salt.
Note: the reply should be a number with no unit written.

molecule COc1cc([C@@H]2c3cc4c(cc3[C@@H](O[C@@H]3O[C@@H]5CO[C@@H](C)O[C@H]5[C@H](O)[C@H]3O)[C@H]3COC(=O)[C@H]23)OCO4)cc(OC)c1O [Etoposide] , surviving fraction observed: 0.78

molecule COC(=O)[C@@H]1[C@H]2C[C@H]3c4[nH]c5ccccc5c4CCN3C[C@@H]2CC[C@@H]1O [Yohimbine hydrochloride] , surviving fraction observed: 0.984

molecule C/C=C(\C)C(=O)N[C@@H](c1ccccc1)[C@@H](O)C(=O)O[C@H]1C[C@@]2(O)[C@@H](OC(=O)c3ccccc3)[C@@H]3[C@]4(OC(C)=O)CO[C@@H]4C[C@H](O)[C@@]3(C)C(=O)[C@H](OC(C)=O)C(=C1C)C2(C)C , surviving fraction observed: 0.137

molecule Nc1ncn([C@@H]2O[C@H](CO)[C@@H](O)[C@H]2O)c(=O)n1 , surviving fraction observed: 0.778
